Give SPOT peptide array binding signal intensity for every item shown.
# system name: ScLsb4
# test description: SPOT peptide array binding signal intensity (averaged, normalized) (arbitrary units (background-subtracted, floor 0; scale differs between SH3 domains)); higher = stronger binding of the SH3 domain to the peptide
One number for each entry.

# count of solved cases: 6
1) KMSRSPPRPPSLKII | 142
2) NTMKKRPAPPSLPSL | 130
3) GERSRPLVISILSSA | 7
4) PVLPPPRSPNRPTLS | 372
5) RRARRQMGIPTISQV | 121
6) ALRRRLPVTRSKINW | 25

Here are 6 binders. What values of SPOT peptide array binding signal intensity were reported for them?
1. VGFRLALKFPSRITG
2. HPRFVSPRIPSRIVK
3. KRRAPPPVPKKPSSR
4. EVTPKVPERPSRRKT
5. RPVPRRPSQPLNTLS
6. IKTRSVPKIPSIESV

Response given:
1. 152
2. 114
3. 105
4. 5280
5. 1750
6. 1030
